Tested on: SK-OV-3 ovarian
experimentDescription: NCI-60 one-dose screen, 48 h
conditionDetails: 10 µM unless noted
Compounds without any hit were thinned out: in the full panel of roughly 83,000, 20% have a hit. Activity calls are given as the source filed them. The calls were made as follows: active = growth percent below 10; inactive = the rest.
API: response.call in active, inactive

Answered examples (2):
C#CCOc1cc(N(CC)CC)ccc1C(C(=O)NC(C)(C)C)N(C(=O)C1CCc2cc(F)ccc2O1)c1cc(C)cc(C)c1 (centres undefined) :: inactive
COc1c(F)ccc(C(=O)Nc2ccc3nc(NC(=O)C4CCCN(S(=O)(=O)c5ccc(C#N)cc5)C4)sc3c2)c1F (centres undefined) :: inactive

stdin: Can you look up the reported call for "Cc1occc1C(=O)NN1C(=O)/C(=C/C=C/c2ccc([N+](=O)[O-])o2)SC1=S" for me?
stdout: inactive

Ref: PubChem BioAssay (NCI)
